testedTarget: MGMT G156C (Homo sapiens, UniProt P16455 1-207, G156C)
Sequence (P16455 whole entry G156C): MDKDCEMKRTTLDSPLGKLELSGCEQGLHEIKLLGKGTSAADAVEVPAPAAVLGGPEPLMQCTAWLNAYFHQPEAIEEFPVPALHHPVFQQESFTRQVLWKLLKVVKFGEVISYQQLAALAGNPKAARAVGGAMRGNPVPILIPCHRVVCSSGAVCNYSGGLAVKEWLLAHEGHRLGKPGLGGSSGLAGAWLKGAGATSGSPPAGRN
assayComment: pre-steady-state rapid-quench kinetics
measurementLabel: Kd (nM)

1) PvuIITopD/PvuIIBottom (O6MeG 18 bp duplex) (dsDNA, O6-methylguanine at position 13 of strand 1 (printed as X), paired with C) DNA 1: GCCCGGCCAGCTGCAGTT DNA 2: AACTGCAGCTGGCCGGGC	240
